Tested on: BMMC
measurementProtocol: Blockade of histamine-induced morphological changes in BALB/c mouse BMMC by flow cytometry
Format: functional, cell-based
Activity calls are given as the source filed them. The calls are words filed in the database; no cut-off is given here.
Please reply with one of these outcomes: active, inactive

INPUT: Tell me the recorded outcome of this test for "Nc1nc2c(c(N3CC[C@@H](N)C3)n1)CCCc1ccccc1-2" .
OUTPUT: active

INPUT: Tell me the recorded outcome of this test for "CN1CCN(c2cc(-c3ccc(C#N)cc3)nc(N)n2)CC1" .
OUTPUT: active

INPUT: Tell me the recorded outcome of this test for Nc1nc2c(c(N3CCNCC3)n1)CCCCC2c1ccccc1 (stereo not given) .
OUTPUT: active

INPUT: Tell me the recorded outcome of this test for "CN[C@@H]1CCN(c2nc(N)nc3c2CCCCc2ccccc2-3)C1" .
OUTPUT: inactive

INPUT: Tell me the recorded outcome of this test for "Nc1nc2c(c(N3CCNCC3)n1)CCCc1ccc(F)cc1-2" .
OUTPUT: active

INPUT: Tell me the recorded outcome of this test for "CNC1CN(c2nc(N)nc3c2CCCc2ccccc2-3)C1" .
OUTPUT: active

INPUT: Tell me the recorded outcome of this test for CN1CCN(C(=O)c2cc3cc(Cl)ccc3[nH]2)CC1 [JNJ-7777120] .
OUTPUT: active

INPUT: Tell me the recorded outcome of this test for "CN[C@@H]1CCN(c2nc(N)nc3c2CCCCCc2ccccc2-3)C1" .
OUTPUT: inactive

INPUT: Tell me the recorded outcome of this test for "CN[C@@H]1CCN(c2nc(N)nc3c2CCCc2ccccc2-3)C1" .
OUTPUT: active

INPUT: Tell me the recorded outcome of this test for "Nc1nc2c(c(N3CCNCC3)n1)CCCc1ccccc1-2" .
OUTPUT: active

###

Give measured Ki for each item. Keep answers brief.
tgt: Histamine H4 receptor (Homo sapiens, UniProt Q9H3N8)
Sequence (Q9H3N8 whole entry): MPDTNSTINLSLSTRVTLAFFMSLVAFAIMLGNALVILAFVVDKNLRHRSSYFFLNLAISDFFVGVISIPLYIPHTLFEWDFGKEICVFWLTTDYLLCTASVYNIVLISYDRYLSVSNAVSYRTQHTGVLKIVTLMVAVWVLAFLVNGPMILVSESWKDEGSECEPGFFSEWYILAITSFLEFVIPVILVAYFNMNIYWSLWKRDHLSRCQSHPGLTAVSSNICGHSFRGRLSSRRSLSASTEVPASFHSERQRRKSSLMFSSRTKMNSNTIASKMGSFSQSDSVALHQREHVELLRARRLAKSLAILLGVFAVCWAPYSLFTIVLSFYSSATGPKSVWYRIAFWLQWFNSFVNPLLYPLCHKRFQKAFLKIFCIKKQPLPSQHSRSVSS
measurementProtocol: Displacement of [3H]histamine from human histamine H4 receptor expressed in HEK293 cells
Assay type: cell-based
recordedConditions: read-out: pKi (converted)
Field note: include the unit after the figure.

INPUT: What value of Ki has been reported for the following compound? "Nc1nc2c(c(N3CCNCC3)n1)Cc1ccccc1-2"
OUTPUT: 0.0129 µM

INPUT: What value of Ki has been reported for the following compound? "O=C(c1cc2cc(Cl)ccc2[nH]1)N1CCNCC1"
OUTPUT: 0.0257 µM

INPUT: What value of Ki has been reported for the following compound? "Nc1nc2c(c(N3CCNCC3)n1)CCc1ccccc1-2"
OUTPUT: 0.0525 µM

INPUT: What value of Ki has been reported for the following compound? "CN1CCN(c2nc(N)nc3c2CCc2ccccc2-3)CC1"
OUTPUT: 0.0155 µM

INPUT: What value of Ki has been reported for the following compound? "CN1CCN(c2cc(-c3ccccc3)nc(N)n2)CC1"
OUTPUT: 0.00501 µM

###

measurementProtocol: Protein binding in human
Type: ADME, organism-based
recordedConditions: in vivo, read-out: PB (converted)
reportedEndpoint: fraction unbound
API doc: respond with a numeric literal and nothing else, no unit.

INPUT: What value of fraction unbound has been reported for the following compound? "CN1CCN(c2cc(-c3ccc(C#N)cc3)nc(N)n2)CC1"
OUTPUT: 0.65

INPUT: What value of fraction unbound has been reported for the following compound? "N#Cc1ccc(-c2cc(N3CCNCC3)nc(N)n2)cc1"
OUTPUT: 0.93

INPUT: What value of fraction unbound has been reported for the following compound? "CN[C@@H]1CCN(c2nc(N)nc3c2CCCc2ccccc2-3)C1"
OUTPUT: 0.51

INPUT: What value of fraction unbound has been reported for the following compound? "CN1CCN(C(=O)c2cc3cc(Cl)ccc3[nH]2)CC1"
OUTPUT: 0.23

INPUT: What value of fraction unbound has been reported for the following compound? Nc1nc2c(c(N3CCNCC3)n1)CCCCC2c1ccccc1 (centres undefined)
OUTPUT: 0.41

INPUT: What value of fraction unbound has been reported for the following compound? "Nc1nc2c(c(N3CCNCC3)n1)CCCc1ccccc1-2"
OUTPUT: 0.56

INPUT: What value of fraction unbound has been reported for the following compound? "O=C(c1cc2cc(Cl)ccc2[nH]1)N1CCNCC1"
OUTPUT: 0.42

INPUT: What value of fraction unbound has been reported for the following compound? "CN1CCN(c2cc(-c3ccccc3)nc(N)n2)CC1"
OUTPUT: 0.51

INPUT: What value of fraction unbound has been reported for the following compound? "Nc1nc2c(c(N3CCNCC3)n1)Cc1ccccc1-2"
OUTPUT: 0.72

INPUT: What value of fraction unbound has been reported for the following compound? "Nc1nc2c(c(N3CCNCC3)n1)CCc1ccccc1-2"
OUTPUT: 0.59

INPUT: What value of fraction unbound has been reported for the following compound? "CN1CCN(c2nc(N)nc3c2CCc2ccccc2-3)CC1"
OUTPUT: 0.22

INPUT: What value of fraction unbound has been reported for the following compound? "CNC1CN(c2nc(N)nc3c2CCCc2ccccc2-3)C1"
OUTPUT: 0.52

INPUT: What value of fraction unbound has been reported for the following compound? "Nc1nc2c(c(N3CC[C@@H](N)C3)n1)CCCc1ccccc1-2"
OUTPUT: 0.52

INPUT: What value of fraction unbound has been reported for the following compound? "Nc1nc2c(c(N3CCNCC3)n1)CCCc1ccc(F)cc1-2"
OUTPUT: 0.39

###

measurementProtocol: Selectivity ratio of Ki for human histamine H4 receptor to Ki for 5HT2A receptor
Is Ratio Ki at least 100? Then fulfilled. If not, not fulfilled.

INPUT: Threshold query (Ratio Ki >= 100) on "CN1CCN(c2cc(-c3ccc(C#N)cc3)nc(N)n2)CC1"
OUTPUT: fulfilled

INPUT: Threshold query (Ratio Ki >= 100) on "Nc1nc2c(c(N3CCNCC3)n1)CCCc1ccccc1-2"
OUTPUT: fulfilled

INPUT: Threshold query (Ratio Ki >= 100) on "CN[C@@H]1CCN(c2nc(N)nc3c2CCCc2ccccc2-3)C1"
OUTPUT: fulfilled

INPUT: Threshold query (Ratio Ki >= 100) on "CNC1CN(c2nc(N)nc3c2CCCc2ccccc2-3)C1"
OUTPUT: fulfilled

INPUT: Threshold query (Ratio Ki >= 100) on "Nc1nc2c(c(N3CCNCC3)n1)CCCc1ccc(F)cc1-2"
OUTPUT: fulfilled

INPUT: Threshold query (Ratio Ki >= 100) on Nc1nc2c(c(N3CCNCC3)n1)CCCCC2c1ccccc1 (stereo unspecified)
OUTPUT: not fulfilled

###

measurementProtocol: Selectivity ratio of Ki for human histamine H4 receptor to Ki for histamine H1 receptor
reportedEndpoint: Ratio Ki

INPUT: What value of Ratio Ki has been reported for the following molecule? Nc1nc2c(c(N3CCNCC3)n1)CCCCC2c1ccccc1 (stereo unspecified)
OUTPUT: > 160

INPUT: What value of Ratio Ki has been reported for the following molecule? "CN1CCN(c2cc(-c3ccc(C#N)cc3)nc(N)n2)CC1"
OUTPUT: > 170

INPUT: What value of Ratio Ki has been reported for the following molecule? "CN[C@@H]1CCN(c2nc(N)nc3c2CCCc2ccccc2-3)C1"
OUTPUT: > 1890

INPUT: What value of Ratio Ki has been reported for the following molecule? "CNC1CN(c2nc(N)nc3c2CCCc2ccccc2-3)C1"
OUTPUT: > 610

INPUT: What value of Ratio Ki has been reported for the following molecule? "Nc1nc2c(c(N3CCNCC3)n1)CCCc1ccc(F)cc1-2"
OUTPUT: > 1290

INPUT: What value of Ratio Ki has been reported for the following molecule? "Nc1nc2c(c(N3CCNCC3)n1)CCCc1ccccc1-2"
OUTPUT: > 93

###

Give measured pKi for each item. Keep answers brief.
tgt: Histamine H4 receptor (Rattus norvegicus, UniProt Q91ZY1)
Sequence (Q91ZY1 whole entry): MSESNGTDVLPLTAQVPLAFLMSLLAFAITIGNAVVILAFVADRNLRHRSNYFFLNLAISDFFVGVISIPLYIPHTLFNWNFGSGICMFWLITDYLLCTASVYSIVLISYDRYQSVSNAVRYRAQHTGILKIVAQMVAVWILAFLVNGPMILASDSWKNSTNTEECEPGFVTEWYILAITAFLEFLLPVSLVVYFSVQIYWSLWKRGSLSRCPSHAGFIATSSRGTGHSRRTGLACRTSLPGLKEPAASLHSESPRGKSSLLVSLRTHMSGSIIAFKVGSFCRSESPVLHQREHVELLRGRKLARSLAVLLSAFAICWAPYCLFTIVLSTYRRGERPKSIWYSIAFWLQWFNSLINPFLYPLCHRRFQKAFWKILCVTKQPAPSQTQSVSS
measurementProtocol: Displacement of [3H]histamine from rat histamine H4 receptor expressed in HEK293 cells
Type: cell-based
Notebook: values listed as pKi are -log10 of the concentration (mol/L).

INPUT: What value of pKi has been reported for the following compound? "CN[C@@H]1CCN(c2nc(N)nc3c2CCCc2ccccc2-3)C1"
OUTPUT: 8.29

INPUT: What value of pKi has been reported for the following compound? Nc1nc2c(c(N3CCNCC3)n1)CCCCC2c1ccccc1 (centres undefined)
OUTPUT: 8.35

INPUT: What value of pKi has been reported for the following compound? "Nc1nc2c(c(N3CCNCC3)n1)CCCc1ccc(F)cc1-2"
OUTPUT: 8.84

INPUT: What value of pKi has been reported for the following compound? "Nc1nc2c(c(N3CCNCC3)n1)CCCc1ccccc1-2"
OUTPUT: 8.12

###

measurementProtocol: Protein binding in rat
Assay type: ADME, organism-based
recordedConditions: in vivo, read-out: PB (converted)
Give measured fraction unbound for each item. Keep answers brief.
API doc: respond with a numeric literal and nothing else, no unit.

INPUT: What value of fraction unbound has been reported for the following compound? Nc1nc2c(c(N3CCNCC3)n1)CCCCC2c1ccccc1 (centres undefined)
OUTPUT: 0.24

INPUT: What value of fraction unbound has been reported for the following compound? "CN1CCN(c2cc(-c3ccc(C#N)cc3)nc(N)n2)CC1"
OUTPUT: 0.62

INPUT: What value of fraction unbound has been reported for the following compound? "N#Cc1ccc(-c2cc(N3CCNCC3)nc(N)n2)cc1"
OUTPUT: 0.96

INPUT: What value of fraction unbound has been reported for the following compound? "CNC1CN(c2nc(N)nc3c2CCCc2ccccc2-3)C1"
OUTPUT: 0.56

INPUT: What value of fraction unbound has been reported for the following compound? "Nc1nc2c(c(N3CC[C@@H](N)C3)n1)CCCc1ccccc1-2"
OUTPUT: 0.45

INPUT: What value of fraction unbound has been reported for the following compound? "Nc1nc2c(c(N3CCNCC3)n1)CCCc1ccccc1-2"
OUTPUT: 0.42

INPUT: What value of fraction unbound has been reported for the following compound? "CN1CCN(C(=O)c2cc3cc(Cl)ccc3[nH]2)CC1"
OUTPUT: 0.28

INPUT: What value of fraction unbound has been reported for the following compound? "CN[C@@H]1CCN(c2nc(N)nc3c2CCCc2ccccc2-3)C1"
OUTPUT: 0.43

INPUT: What value of fraction unbound has been reported for the following compound? "Nc1nc2c(c(N3CCNCC3)n1)Cc1ccccc1-2"
OUTPUT: 0.31

INPUT: What value of fraction unbound has been reported for the following compound? "CN1CCN(c2nc(N)nc3c2CCc2ccccc2-3)CC1"
OUTPUT: 0.3

INPUT: What value of fraction unbound has been reported for the following compound? "Nc1nc2c(c(N3CCNCC3)n1)CCCc1ccc(F)cc1-2"
OUTPUT: 0.34

INPUT: What value of fraction unbound has been reported for the following compound? "Nc1nc2c(c(N3CCNCC3)n1)CCc1ccccc1-2"
OUTPUT: 0.73

INPUT: What value of fraction unbound has been reported for the following compound? "CN1CCN(c2cc(-c3ccccc3)nc(N)n2)CC1"
OUTPUT: 0.35

INPUT: What value of fraction unbound has been reported for the following compound? "O=C(c1cc2cc(Cl)ccc2[nH]1)N1CCNCC1"
OUTPUT: 0.35
